# IC50 against Oxytocin receptor (Rattus norvegicus, UniProt P70536), merged from multiple literature sources
# Sequence (P70536 whole entry): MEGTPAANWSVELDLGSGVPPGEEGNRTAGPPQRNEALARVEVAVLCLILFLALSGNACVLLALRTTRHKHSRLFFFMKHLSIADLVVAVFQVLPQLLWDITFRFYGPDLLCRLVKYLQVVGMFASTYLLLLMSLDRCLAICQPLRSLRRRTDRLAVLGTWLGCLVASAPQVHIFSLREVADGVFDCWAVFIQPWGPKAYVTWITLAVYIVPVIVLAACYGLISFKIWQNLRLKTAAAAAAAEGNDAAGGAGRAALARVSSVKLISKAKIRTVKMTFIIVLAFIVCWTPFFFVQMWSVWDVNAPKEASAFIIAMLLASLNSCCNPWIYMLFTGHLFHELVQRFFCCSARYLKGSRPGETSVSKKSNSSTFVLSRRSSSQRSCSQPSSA
Consider the cut-off 1000 nM. If the recorded IC50 is strictly smaller, the label is Yes; if not, the label is No.

q: # strict comparison: is reported IC50 < 1000 nM? input = COc1cc(NC(=O)c2ccccc2Cl)ccc1C(=O)N1CCCC(CC(=O)N2CCCN(C)CC2)c2cc(Cl)ccc21 (stereo not shown)
a: Yes

q: Would you kindly repeat that for CCNC(=O)CC1CCCN(C(=O)c2ccc(NC(=O)c3ccccc3Cl)nc2)c2ccc(Cl)cc21 (stereo not shown) ?
a: Yes

q: Would you kindly repeat that for COc1cc(NC(=O)c2ccccc2Br)ccc1C(=O)N1CCCC(OCCNS(=O)(=O)C(F)(F)F)c2cc(Cl)ccc21 (stereo not shown) ?
a: No

q: Would you kindly repeat that for `Cc1ccc(F)cc1C(=O)Nc1ccc(C(=O)N2Cc3cccn3Cc3ccccc32)cc1Cl` ?
a: Yes

q: Would you kindly repeat that for `CCOC(=O)COc1ccccc1C(=O)Nc1ccc(C(=O)N2CCCCc3cc(Cl)ccc32)cn1` ?
a: No

q: Would you kindly repeat that for `O=C(c1ccccc1)c1ccc(C(=O)N2Cc3ccccc3Oc3ccccc32)cc1` ?
a: No

q: Would you kindly repeat that for `Cc1ccccc1C(=O)Nc1ccc(C(=O)N2Cc3cccn3Cc3ccccc32)c(Cl)c1` ?
a: Yes

q: Would you kindly repeat that for CN1CCN(C(=O)CC2CCCN(C(=O)c3ccc(NC(=O)c4ccccc4Cl)nc3)c3ccc(Cl)cc32)CC1 (stereo not shown) ?
a: Yes

q: Would you kindly repeat that for CCN(CC)CCN(CC)C(=O)CC1CCCN(C(=O)c2ccc(NC(=O)c3ccccc3Cl)cc2OC)c2ccc(Cl)cc21 (stereo not shown) ?
a: Yes

q: Would you kindly repeat that for `O=C(Nc1ccc(C(=O)N2Cc3ccnn3Cc3ccccc32)cc1)c1ccc(Cl)cc1Cl` ?
a: No

q: Would you kindly repeat that for `O=C(c1ccc(Sc2ccccc2)cc1)N1Cc2cccn2Cc2ccccc21` ?
a: No

q: Would you kindly repeat that for Cc1ccccc1C(=O)Nc1ccc(C(=O)N2CCCC(CC(N)=O)c3cc(Cl)ccc32)cc1 (stereo not shown) ?
a: Yes

q: Would you kindly repeat that for `Nc1ccc(C(=O)N2Cc3cccn3Cc3ccccc32)c(Cl)c1` ?
a: No

q: Would you kindly repeat that for `Cc1ccccc1C(=O)Nc1ccc(C(=O)N2CCc3cccn3-c3ccccc32)cc1` ?
a: No

q: Would you kindly repeat that for C=CCNCCC1CCCN(C(=O)c2ccc(NC(=O)c3ccccc3Cl)cc2C)c2ccc(Cl)cc21 (stereo not shown) ?
a: No

q: Would you kindly repeat that for `O=C(Nc1ccc(C(=O)N2Cc3cccn3Cc3ccccc32)cc1)c1c(Cl)cccc1Cl` ?
a: Yes

q: Would you kindly repeat that for COc1cc(NC(=O)c2ccccc2Cl)ccc1C(=O)N1CCCC(CC(=O)N2CCN(CC(O)CNC(C)C)CC2)c2cc(Cl)ccc21 (stereo not shown) ?
a: Yes

q: Would you kindly repeat that for `O=C(Nc1ccc(C(=O)N2Cc3cccn3Cc3ccccc32)cc1)c1ccccc1Cl` ?
a: Yes

q: Would you kindly repeat that for COc1cc(NC(=O)c2ccccc2Cl)ccc1C(=O)N1CCCC(CC(=O)Nc2ccncc2)c2cc(Cl)ccc21 (stereo not shown) ?
a: Yes

q: Would you kindly repeat that for `O=C(Nc1ccc(C(=O)N2Cc3ccc(CN4CCOCC4)n3Cc3ccccc32)cc1)c1ccc(Cl)cc1Cl` ?
a: No

q: Would you kindly repeat that for COc1cc(C(=O)N2CCCC(CC(=O)NCCN3CCOCC3)c3cc(Cl)ccc32)ccc1NC(=O)c1ccccc1Br (stereo not shown) ?
a: Yes

q: Would you kindly repeat that for `NC(=O)COc1ccccc1C(=O)Nc1ccc(C(=O)N2CCCCc3cc(Cl)ccc32)cn1` ?
a: No

q: Would you kindly repeat that for CN(C)C(C(=O)Nc1ccc(C(=O)N2Cc3cccn3Cc3ccccc32)cc1)c1ccccc1 (stereo not shown) ?
a: No

q: Would you kindly repeat that for `CN(C)Cc1ccc2n1Cc1ccccc1N(C(=O)c1ccc(NC(=O)c3ccc(Cl)cc3Cl)cc1)C2` ?
a: No

q: Would you kindly repeat that for CNC(=O)CC1CCCN(C(=O)c2ccc(NC(=O)c3ccccc3Cl)cc2C)c2ccc(Cl)cc21 (stereo not shown) ?
a: No

q: Would you kindly repeat that for `O=C(Nc1ccc(C(=O)N2Cc3ccccc3Cc3ccccc32)cn1)c1ccccc1-c1ccccc1` ?
a: Yes

q: Would you kindly repeat that for `Cc1ccccc1C(=O)Nc1ccc(C(=O)N2Cc3cccn3Cc3ccccc32)cc1` ?
a: Yes

q: Would you kindly repeat that for `Cc1ccccc1C(=O)Nc1ccc(C(=O)N2CCCCc3cc(Cl)ccc32)cn1` ?
a: Yes

q: Would you kindly repeat that for `Cc1ccc(F)cc1C(=O)Nc1ccc(C(=O)N2Cc3cccn3Cc3ccccc32)cc1` ?
a: Yes

q: Would you kindly repeat that for `O=C(Nc1ccc(C(=O)N2CCCCc3cc(Cl)ccc32)cn1)c1ccccc1Br` ?
a: Yes

q: Would you kindly repeat that for `Cc1ccccc1C(=O)Nc1ccc(C(=O)N2Cc3ccnn3Cc3ccccc32)c(Cl)c1` ?
a: Yes

###

pIC50: −log10 of the molar value.
# pIC50 against Oxytocin receptor (Rattus norvegicus, UniProt P70536), merged from multiple literature sources
Threshold rule: pIC50 greater than or equal to 6 is 1.0; below that, 0.0.

q: For this compound, is measured pIC50 6 or higher? `COc1cc(NC(=O)c2ccccc2Cl)ccc1C(=O)N1CCC=C(CCN2CCN(C(C)=O)CC2)c2cc(Cl)ccc21`
a: 0.0

q: Would you kindly repeat that for `O=C(Nc1ccc(C(=O)N2CCc3cccn3-c3ccccc32)c(Cl)c1)c1ccc(Cl)cc1Cl` ?
a: 0.0

q: Would you kindly repeat that for `O=C(c1ccc(-c2ccccc2)cc1)N1Cc2cccn2Cc2ccccc21` ?
a: 1.0

q: Would you kindly repeat that for COc1cc(NC(=O)c2ccccc2Cl)ccc1C(=O)N1CCCC(CC(=O)N2CCN(c3ccccc3Cl)CC2)c2cc(Cl)ccc21 (stereo not shown) ?
a: 1.0

q: Would you kindly repeat that for COc1cc(NC(=O)c2ccccc2Cl)ccc1C(=O)N1CCCC(CCN2CCN(S(C)(=O)=O)CC2)c2cc(Cl)ccc21 (stereo not shown) ?
a: 1.0

q: Would you kindly repeat that for `CCOC(=O)c1ccc2n1Cc1ccccc1N(C(=O)c1ccc(N)cc1)C2` ?
a: 0.0

q: Would you kindly repeat that for `Cc1ccc(Sc2ccc(C(=O)N3Cc4cccn4Cc4ccccc43)cc2)cc1` ?
a: 0.0

q: Would you kindly repeat that for `O=C(Nc1ccc(C(=O)N2Cc3ccnn3Cc3ccccc32)c(Cl)c1)c1ccc(Cl)cc1Cl` ?
a: 0.0

q: Would you kindly repeat that for `Cc1ccccc1CC(=O)Nc1ccc(C(=O)N2Cc3cccn3-c3ccccc32)cc1` ?
a: 0.0

q: Would you kindly repeat that for `O=C(Nc1ccc(C(=O)N2Cc3cccn3Cc3ccccc32)cc1)c1cccc(Cl)c1Cl` ?
a: 1.0

q: Would you kindly repeat that for `O=C(c1ccc(-c2nccs2)cc1)N1Cc2cccn2Cc2ccccc21` ?
a: 0.0

q: Would you kindly repeat that for `CCN(CC)Cc1ccc2n1Cc1ccccc1N(C(=O)c1ccc(NC(=O)c3ccc(Cl)cc3Cl)cc1)C2` ?
a: 0.0

q: Would you kindly repeat that for COc1cc(NC(=O)c2ccccc2Cl)ccc1C(=O)N1CCCC(CC(=O)NCCc2cccn2C)c2cc(Cl)ccc21 (stereo not shown) ?
a: 1.0

q: Would you kindly repeat that for `O=C(Nc1ccc(C(=O)N2CCc3cn[nH]c3-c3sccc32)cc1)c1ccc(F)cc1Cl` ?
a: 0.0

q: Would you kindly repeat that for `O=C(Nc1ccc(C(=O)N2Cc3cccn3Cc3ccccc32)cc1)c1cc(Cl)cc(Cl)c1Cl` ?
a: 1.0

###

# IC50 against Oxytocin receptor (Rattus norvegicus, UniProt P70536), merged from multiple literature sources
Please don't drop the unit; write it after the number.

q: Using the record for COc1cc(NC(=O)c2ccccc2Cl)ccc1C(=O)N1CCCC(OCCS(=O)(=O)c2ccncc2)c2cc(Cl)ccc21 (stereo not shown) , report its IC50.
a: 1130 nM

q: Would you kindly repeat that for COC1CCCN(C(=O)c2ccc(NC(=O)c3ccccc3Cl)nc2)c2ccc(Cl)cc21 (stereo not shown) ?
a: 440 nM

q: Would you kindly repeat that for `O=C(c1ccc(-c2ccccc2C(F)(F)F)cc1)N1Cc2cccn2Cc2ccccc21` ?
a: 1270 nM

q: Would you kindly repeat that for `Cc1ccc(F)cc1C(=O)Nc1ccc(C(=O)N2CCc3cn[nH]c3-c3sccc32)cc1` ?
a: 1300 nM

q: Would you kindly repeat that for `CN(C)Cc1ccc2n1Cc1ccccc1N(C(=O)c1ccc(-c3ccccc3)cc1)C2` ?
a: 110 nM

q: Would you kindly repeat that for COc1cc(C(=O)N2CCCC(CC(=O)N(C)C)c3cc(Cl)ccc32)ccc1NC(=O)c1ccccc1Br (stereo not shown) ?
a: 190 nM

q: Would you kindly repeat that for COc1cc(NC(=O)c2ccccc2Cl)ccc1C(=O)N1CCCC(CC(=O)NCc2cnc(C)cn2)c2cc(Cl)ccc21 (stereo not shown) ?
a: 96 nM
